# SUBJECT_OF_TEST: T1, EsCas13d, nuclease-dead (Eubacterium siraeum, UniProt B0MS50, R295A;H300A;R849A;H854A)
# T1 sequence: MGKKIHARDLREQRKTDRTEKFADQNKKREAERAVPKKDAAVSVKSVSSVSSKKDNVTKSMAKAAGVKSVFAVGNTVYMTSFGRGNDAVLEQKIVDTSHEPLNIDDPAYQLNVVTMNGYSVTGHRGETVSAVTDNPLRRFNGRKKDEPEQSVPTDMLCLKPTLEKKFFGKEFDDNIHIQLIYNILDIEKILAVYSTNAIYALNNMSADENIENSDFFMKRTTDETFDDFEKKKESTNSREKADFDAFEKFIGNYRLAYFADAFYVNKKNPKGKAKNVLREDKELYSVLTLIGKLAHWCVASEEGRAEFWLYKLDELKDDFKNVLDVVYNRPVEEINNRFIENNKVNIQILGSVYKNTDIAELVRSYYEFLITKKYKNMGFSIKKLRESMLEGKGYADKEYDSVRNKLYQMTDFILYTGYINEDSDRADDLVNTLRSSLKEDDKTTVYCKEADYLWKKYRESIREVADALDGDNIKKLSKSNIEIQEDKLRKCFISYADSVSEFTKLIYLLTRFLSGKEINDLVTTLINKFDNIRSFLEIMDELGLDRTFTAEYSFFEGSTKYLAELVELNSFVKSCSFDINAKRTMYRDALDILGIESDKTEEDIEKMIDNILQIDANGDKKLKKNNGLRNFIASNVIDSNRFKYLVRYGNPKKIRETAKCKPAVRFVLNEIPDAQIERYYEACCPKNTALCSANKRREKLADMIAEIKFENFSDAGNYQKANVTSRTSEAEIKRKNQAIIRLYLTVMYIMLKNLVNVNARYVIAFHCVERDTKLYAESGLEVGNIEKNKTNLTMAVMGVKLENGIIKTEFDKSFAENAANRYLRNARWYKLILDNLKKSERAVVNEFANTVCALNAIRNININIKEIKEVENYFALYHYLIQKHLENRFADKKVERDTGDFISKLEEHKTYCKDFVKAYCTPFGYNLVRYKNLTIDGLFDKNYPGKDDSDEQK
# EXPERIMENT_SUMMARY: crRNA (strand 1, pre-loaded); Mg2+; 40 mM Tris-HCl pH 7.5, 150 mM NaCl, 6 mM MgCl2, 1 mM DTT, 0.1% Tween-20, 0.2 mg/ml BSA; 25 C; 10 min per concentration, then washed
# CONDITION_INFO: tags: His6-TwinStrep-SUMO cleaved; N-terminal SNAP kept (SNAP-Surface 488); label: 3' end held by stalled T7 RNA polymerase
REPORTED_METRIC: Kd

Examples from the recorded data:
target 3 del5 (mixed) RNA 1: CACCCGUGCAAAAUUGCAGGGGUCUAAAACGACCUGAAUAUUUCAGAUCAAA RNA 2: GGGAAUGGAUCCACAUCUACGAAUUCGUUUUUGAUCUGAAAUAUUCGGUCUGCAGAUCGGAAGAGCACACGU; 65.5 nM
target 2 MT 5'PFS CGA 3'PFS CAC (mixed) RNA 1: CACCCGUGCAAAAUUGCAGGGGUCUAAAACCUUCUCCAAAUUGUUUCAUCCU RNA 2: GGGAAUGGAUCCACAUCUACGAAUUCCGAAGGAUGAAACAAUUUGGAGAAGCACAGAUCGGAAGAGCACACGU; 9 nM
target 1 insG 3' of 11,insG 3' of 10 (mixed) RNA 1: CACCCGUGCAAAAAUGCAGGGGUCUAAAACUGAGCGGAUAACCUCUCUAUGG RNA 2: GGGAAUGGAUCCACAUCUACGAAUUCGUACCAUAGAGAGGUGUGAUCCGCUCACCGAGAUCGGAAGAGCACACGU; 30 nM

Let's switch to this binder now.
Fill blank: measured Kd of the binder target 2 MT 5'PFS UAU 3'PFS CUC (mixed) RNA 1: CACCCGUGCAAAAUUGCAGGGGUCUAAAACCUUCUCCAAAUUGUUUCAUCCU RNA 2: GGGAAUGGAUCCACAUCUACGAAUUCUAUAGGAUGAAACAAUUUGGAGAAGCUCAGAUCGGAAGAGCACACGU is ____.
38 nM

# credit: paper PMC10786891
